The origin of these recorded values is patent US12601000B2.

ASSAY REMARKS: Solubility limits of LCA and UDCA in organic solvents
Assay type: physicochemical
RECORDED CONDITIONS: organic solvent, organic solvent or mixture, thermodynamic from solid, hexane/IPA 7:3 + 0.02% TFA; read-out: solubility limit
MEASURED QUANTITY: solubility (mg/mL)
# output: bare number, implied unit mg/mL

# solubility of "C[C@H](CCC(=O)O)[C@H]1CC[C@H]2[C@@H]3[C@@H](O)C[C@@H]4C[C@H](O)CC[C@]4(C)[C@H]3CC[C@]12C" = 12

---

ASSAY REMARKS: Solubility limits of LCA and UDCA in organic solvents
Type: physicochemical
RECORDED CONDITIONS: organic solvent, organic solvent or mixture, thermodynamic from solid, methanol; read-out: solubility limit
MEASURED QUANTITY: solubility

Memo: C[C@H](CCC(=O)O)[C@H]1CC[C@H]2[C@@H]3[C@@H](O)C[C@@H]4C[C@H](O)CC[C@]4(C)[C@H]3CC[C@]12C [UDCA, ursodeoxycholic acid] , reported solubility: > 100 mg/mL
